Data origin: ChEMBL document CHEMBL1151445

Recorded log10(MIC) by entry
# Test system: Pseudomonas aeruginosa
# test_name: Antimicrobial activity against Pseudomonas aeruginosa PAO1 harboring pV2GY3 with blaVIM-2 and aac(6)'-32 by E-test
# Assay type: functional
outcome_measure: log10(MIC) (log10 of the value in µg/mL)

- molecule: "C[C@H]1[C@H](NC(=O)/C(=N\\OC(C)(C)C(=O)O)c2csc(N)n2)C(=O)N1S(=O)(=O)O [AZTREONAM]"
  outcome_measure: "log10(MIC)"
  endpoint_result: 0.30
- molecule: "C[C@@H](O)[C@H]1C(=O)N2C(C(=O)O)=C(S[C@@H]3CN[C@H](C(=O)N(C)C)C3)[C@H](C)[C@H]12 [MEROPENEM]"
  outcome_measure: "log10(MIC)"
  endpoint_result: 1.20
- molecule: "NC[C@H]1O[C@H](O[C@H]2[C@H](O)[C@@H](O[C@H]3O[C@H](CO)[C@@H](O)[C@H](N)[C@H]3O)[C@H](N)C[C@@H]2N)[C@H](N)C[C@@H]1O [TOBRAMYCIN]"
  outcome_measure: "log10(MIC)"
  endpoint_result: 1.81
- molecule: "NCC[C@H](O)C(=O)N[C@@H]1C[C@H](N)[C@@H](O[C@H]2O[C@H](CN)[C@@H](O)[C@H](O)[C@H]2O)[C@H](O)[C@H]1O[C@H]1O[C@H](CO)[C@@H](O)[C@H](N)[C@H]1O [AMIKACIN]"
  outcome_measure: "log10(MIC)"
  endpoint_result: 1.68
- molecule: "CCN1CCN(C(=O)N[C@@H](C(=O)N[C@@H]2C(=O)N3[C@@H]2SC(C)(C)[C@@H]3C(=O)O)c2ccccc2)C(=O)C1=O [PIPERACILLIN]"
  outcome_measure: "log10(MIC)"
  endpoint_result: 1.20
- molecule: "CO/N=C(\\C(=O)N[C@@H]1C(=O)N2C(C(=O)[O-])=C(C[N+]3(C)CCCC3)CS[C@H]12)c1csc(N)n1"
  outcome_measure: "log10(MIC)"
  endpoint_result: 1.20
- molecule: "CC(C)(O/N=C(\\C(=O)N[C@@H]1C(=O)N2C(C(=O)[O-])=C(C[n+]3ccccc3)CS[C@H]12)c1csc(N)n1)C(=O)O [CEFTAZIDIME]"
  outcome_measure: "log10(MIC)"
  endpoint_result: 1.38
